- assayed_target: T1, IL-2Rβγ on HEK-Blue IL-2Rβγ reporter cells (InvivoGen) (UniProt P14784 27-551; P31785 23-369, limits assumed)
- T1 sequence (looked up) 1: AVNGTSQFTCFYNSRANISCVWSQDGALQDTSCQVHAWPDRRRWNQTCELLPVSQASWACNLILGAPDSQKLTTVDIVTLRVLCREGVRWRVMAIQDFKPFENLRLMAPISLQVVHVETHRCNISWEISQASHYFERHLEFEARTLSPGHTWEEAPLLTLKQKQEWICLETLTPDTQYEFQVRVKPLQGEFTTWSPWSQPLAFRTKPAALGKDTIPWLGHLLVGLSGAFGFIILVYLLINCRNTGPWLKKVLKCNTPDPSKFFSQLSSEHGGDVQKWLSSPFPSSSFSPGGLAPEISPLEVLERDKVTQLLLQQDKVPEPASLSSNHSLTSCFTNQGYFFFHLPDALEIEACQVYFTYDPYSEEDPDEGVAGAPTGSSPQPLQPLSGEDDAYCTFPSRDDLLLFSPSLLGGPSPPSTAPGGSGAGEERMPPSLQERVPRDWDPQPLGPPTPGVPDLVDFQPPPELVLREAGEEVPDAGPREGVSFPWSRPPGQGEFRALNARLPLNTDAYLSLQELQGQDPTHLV
- T1 sequence (looked up) 2: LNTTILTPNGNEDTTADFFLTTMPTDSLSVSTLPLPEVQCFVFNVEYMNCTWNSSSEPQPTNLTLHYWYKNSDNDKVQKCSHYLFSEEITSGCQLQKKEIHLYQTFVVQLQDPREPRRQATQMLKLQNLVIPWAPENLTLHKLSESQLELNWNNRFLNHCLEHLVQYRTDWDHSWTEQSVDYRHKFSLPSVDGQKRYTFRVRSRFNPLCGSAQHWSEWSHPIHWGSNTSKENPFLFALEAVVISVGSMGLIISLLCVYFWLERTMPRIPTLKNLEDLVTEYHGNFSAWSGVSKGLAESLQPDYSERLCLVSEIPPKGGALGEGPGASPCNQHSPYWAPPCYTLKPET
- protocol: cell-based or functional assay
Primed or numbered codes have the meaning given here. [ ]: non-standard residue; d: D form. Ygp = O-(8x polyethylene glycol-amino)-tyrosine (Tyr, amino-capped PEG8); Yn3 = O-(9x polyethylene glycol-azido)-tyrosine (Tyr, azide-capped PEG9); Ygp″ = O-(8x polyethylene glycol-amino)-tyrosine; Yn3″ = O-(9x polyethylene glycol-azido)-tyrosine; hSer = N[C@@H](CCO)C(=O)O; Nle = CCCC[C@H](N)C(=O)O
readout_kind: Average EC50, HEK-Blue IL-2R (CD122+, CD132+) Reporter Assay, uPa cleaved molecule (nM)

INSERT INTO measurements (binder, value_observed) VALUES
  ('CMP-328, uPa cleaved (ligand, also: uPa-cleaved, before the cut Lys9-Glu23 side chains bridged by peptide linker, product not given here) APTSSSTKKTQLQLEHLLLDLQEILNGINNYKNPKLTR[Nle]L[hSer][Yn3]KF[Ygp][Nle]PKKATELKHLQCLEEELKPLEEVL[hSer]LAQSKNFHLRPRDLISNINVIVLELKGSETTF[hSer]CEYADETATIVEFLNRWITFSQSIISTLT', 0.571),
  ('CMP-329, uPa cleaved (ligand, ends and bridges not checked; also: uPa-cleaved, cut in the RQRRSVVGG bridge between Lys9 and Glu23, remaining fragments not given here) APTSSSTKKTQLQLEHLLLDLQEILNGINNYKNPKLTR[Nle]L[hSer][Yn3″]KF[Ygp″][Nle]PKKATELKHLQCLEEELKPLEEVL[hSer]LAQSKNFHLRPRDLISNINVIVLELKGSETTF[hSer]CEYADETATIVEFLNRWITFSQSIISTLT', 1.41);
